Target: human S1PR4 (Homo sapiens, UniProt O95977)
Construct: host or cells: CHO-K1
Sequence (O95977 whole entry): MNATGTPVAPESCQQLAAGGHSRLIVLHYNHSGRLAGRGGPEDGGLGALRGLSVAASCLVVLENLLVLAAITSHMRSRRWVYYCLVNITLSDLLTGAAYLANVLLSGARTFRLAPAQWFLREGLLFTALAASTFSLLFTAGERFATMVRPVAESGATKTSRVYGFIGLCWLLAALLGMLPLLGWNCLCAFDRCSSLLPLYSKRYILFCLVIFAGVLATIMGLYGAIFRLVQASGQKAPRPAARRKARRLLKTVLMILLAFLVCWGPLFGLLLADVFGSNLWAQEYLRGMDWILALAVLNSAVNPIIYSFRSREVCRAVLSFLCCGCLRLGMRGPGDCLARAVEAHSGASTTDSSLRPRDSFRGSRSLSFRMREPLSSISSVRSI
Experiment: Intracellular Ca2+ release (FLIPR) agonist potency, S1P4
Assay type: cell-based
Conditions: recombinant CHO-K1 cells expressing human S1PR4, aequorin, Gq/i5; Calcium 5 FLIPR; read-out: S1P4 EC50
pEC50: −log10 of the molar value.
pEC50: recorded values

# annotated cases, reported pEC50 shown
>>> result("O=C(O)CCOC1CCc2cc(OCc3ccc(OC(F)(F)F)cc3)ccc2C1 (centres unmarked)")
"< 6.00"
>>> result("CCc1ccccc1COc1ccc2c(c1)OCC(N1CC(C(=O)O)C1)C2 (centres unmarked)")
"> 6.00"
>>> result("Cc1ccc(C(F)(F)F)c(COc2ccc3c(c2)CCC(OCC(=O)O)C3)c1 (centres unmarked)")
"< 6.00"
>>> result("O=C(O)C1CN(C2COc3cc(OCc4ccccc4C(F)(F)F)ccc3C2)C1 (centres unmarked)")
"< 6.00"
>>> result("O=C(O)COC1CCc2cc(OCc3c(F)ccc(Cl)c3F)ccc2C1 (centres unmarked)")
"< 6.00"

q: Reported pEC50 for O=C(O)CCNC1CCc2cc(/C=C/c3c(Cl)cccc3Cl)ccc2C1 (centres unmarked) : what is it?
a: > 6.00

q: Using the record for O=C(O)C1CCN(CC2OCCc3cc(OCc4c(Cl)cccc4Cl)ccc32)CC1 (centres unmarked) , report its pEC50.
a: > 6.00

q: Name the reported pEC50 value associated with the compound O=C(O)COC1CCc2cc(OCc3ccccc3Cl)ccc2C1 (centres unmarked)
a: < 6.00

q: Fill in the blank: the reported pEC50 of O=C(O)COC1CCc2cc(OCc3ccc(F)c(F)c3)ccc2C1 (centres unmarked) is ____.
a: < 6.00

q: pEC50 for CCc1cccc(Cl)c1COc1ccc2c(c1)CCC(NCC1(C(=O)O)CC1)C2 (centres unmarked) ?
a: > 6.00

q: So what does the record say about pEC50 for COc1ccc(F)cc1COc1ccc2c(c1)CCC(OCC(=O)O)C2 (centres unmarked) ?
a: < 6.00

q: Which value of pEC50 has been reported for O=C(O)C1CN(C2COc3cc(C#Cc4cccc(F)c4F)ccc3C2)C1 (centres unmarked) in the records?
a: < 6.00

q: I would be grateful if you could share the reported pEC50 for O=C(O)COC1CCc2cc(OCc3c(F)cccc3F)ccc2C1 (centres unmarked) .
a: < 6.00

q: Requested field: pEC50. Item: O=C(O)CCOC1CCc2cc(OCc3cccc(OC(F)(F)F)c3)ccc2C1 (centres unmarked)
a: < 6.00

Attribution: patent US10280159B2
